Target: Vasoactive intestinal polypeptide receptor 2 (Homo sapiens) (UniProt P41587)
Sequence (whole entry): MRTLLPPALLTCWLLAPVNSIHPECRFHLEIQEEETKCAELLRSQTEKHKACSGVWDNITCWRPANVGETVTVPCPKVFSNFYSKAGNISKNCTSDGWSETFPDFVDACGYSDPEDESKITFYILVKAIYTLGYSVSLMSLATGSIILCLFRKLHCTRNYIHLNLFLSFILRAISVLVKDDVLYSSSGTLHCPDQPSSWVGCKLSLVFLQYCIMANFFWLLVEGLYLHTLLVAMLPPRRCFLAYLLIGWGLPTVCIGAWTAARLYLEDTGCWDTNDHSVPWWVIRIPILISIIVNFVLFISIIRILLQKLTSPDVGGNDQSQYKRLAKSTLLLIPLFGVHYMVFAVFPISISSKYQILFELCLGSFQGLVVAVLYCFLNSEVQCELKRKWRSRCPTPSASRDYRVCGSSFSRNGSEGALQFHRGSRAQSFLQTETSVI
Assay: Antagonist activity at recombinant human N-terminal signal peptide/FLAG epitope-tagged VIPR2 expressed in HEK293 cells co-expressing CAMYEL assessed as inhibition of VIP-induced cAMP accumulation at 1 uM preincubated for 5 mins with luciferin, coelenterazine H followed by VIP addition measured after 5 mins by BRET assay relative to control
Assay type: functional, cell-based
Hi there, I'd appreciate the recorded inhibition for every entry that follows.
Just the number in %, nothing appended.

Prompt: # return recorded inhibition for entry C#CCCCC(=O)NC[C@@H](O)C[C@@H](Cc1ccccc1)C(=O)N[C@H]1c2ccccc2C[C@H]1O
Completion: 20.2

Prompt: Indicate its recorded inhibition; the molecule in question is COc1cc(C(=O)NC[C@@H](O)C[C@@H](Cc2ccccc2)C(=O)N[C@H]2c3ccccc3C[C@H]2O)cc(OC)c1OC
Completion: 20

Prompt: Output measured inhibition for this item: O=C(N[C@H]1c2ccccc2C[C@H]1O)[C@H](Cc1ccccc1)C[C@H](O)CNS(=O)(=O)c1ccccc1C(F)(F)F
Completion: 18.8

Prompt: Provide one value: measured inhibition of O=C(NC[C@@H](O)C[C@@H](Cc1ccccc1)C(=O)N[C@H]1c2ccccc2C[C@H]1O)c1ccc([N+](=O)[O-])cc1
Completion: 22.3

Prompt: Return value of inhibition for input CC(=O)c1ccc(S(=O)(=O)NC[C@@H](O)C[C@@H](Cc2ccccc2)C(=O)N[C@H]2c3ccccc3C[C@H]2O)cc1 , no commentary.
Completion: 61.1

Prompt: Give a short answer stating reported inhibition for O=C([C@@H](Cc1ccccc1)C[C@H](O)CNS(=O)(=O)c1ccc([N+](=O)[O-])cc1)N1CCCCC1 .
Completion: 14.2

Prompt: For the molecule O=C(NCc1ccccc1)c1ccc(S(=O)(=O)NC[C@@H](O)C[C@@H](Cc2ccccc2)C(=O)N[C@H]2c3ccccc3C[C@H]2O)cc1 , give its reported inhibition.
Completion: 32.3

Prompt: Read off the recorded inhibition for O=C(Nc1ccc(S(=O)(=O)NC[C@@H](O)C[C@@H](Cc2ccccc2)C(=O)N[C@H]2c3ccccc3C[C@H]2O)cc1)C1CC1
Completion: 23

Prompt: Provide only the value of recorded inhibition for CC(C)c1cc(C(C)C)c(S(=O)(=O)NC[C@@H](O)C[C@@H](Cc2ccccc2)C(=O)N[C@H]2c3ccccc3C[C@H]2O)c(C(C)C)c1
Completion: 18.6

Prompt: Recall and state the measured inhibition for CCCCNC(=O)[C@@H](Cc1ccccc1)C[C@H](O)CNS(=O)(=O)c1ccc([N+](=O)[O-])cc1 .
Completion: 0.6

Prompt: Report measured inhibition; entry is O=C(NC[C@@H](O)C[C@@H](Cc1ccccc1)C(=O)N[C@H]1c2ccccc2C[C@H]1O)c1ccncc1
Completion: 19.2

Prompt: Hello, please tell me recorded inhibition for this one: CO[C@@H]1Cc2ccccc2[C@@H]1NC(=O)[C@H](Cc1ccccc1)C[C@H](O)CNS(=O)(=O)c1ccc([N+](=O)[O-])cc1
Completion: 5.9

Prompt: // Input: C[C@H](CC(C)(C)C)NC(=O)[C@H](Cc1ccccc1)C[C@H](O)CNS(=O)(=O)c1ccc([N+](=O)[O-])cc1 . Output its inhibition only.
Completion: 4.4

Prompt: For the molecule O=C(NC[C@@H](O)C[C@@H](Cc1ccccc1)C(=O)N[C@H]1c2ccccc2C[C@H]1O)c1cccc(CCl)c1 , report inhibition.
Completion: 2.3

Prompt: Respond only with inhibition recorded for CC(C)(C)c1ccc(C(=O)NC[C@@H](O)C[C@@H](Cc2ccccc2)C(=O)N[C@H]2c3ccccc3C[C@H]2O)cc1
Completion: 16
